# Protocol summary: NCI Yeast Anticancer Drug Screen. Data for the mec2-1 strain (AID 157)
# Reported conditions: S. cerevisiae mec2-1 strain, at 50.0 µM, stronger effect = higher value
About 79,000 compounds went through this panel and 15% of them were active in at least one assay; those are over-represented in the sample as a whole.
Item-by-item account of growth inhibition
Measurement name: growth inhibition (%)

compound="C1CCC2C(C1)CCCC2NC1=NCCO1 (stereo not drawn)" quantitative_result=-23.7
compound=O=C(O)c1ccc(OCCOc2ccccc2)c(Cl)c1 quantitative_result=74.8
compound=CCOC(=O)C(Cc1ccccc1Cl)(NC(C)=O)C(=O)OCC quantitative_result=-7.95
compound=Cn1c(=O)c2nc(SC3CCCCC3)n(C)c2n(C)c1=O quantitative_result=-9.05
compound="NC(=O)OC1CCN(c2cccc(Cl)c2)C1 (stereo not drawn)" quantitative_result=-22.3
compound=C=CCNC(=S)NCc1ccc(Cl)cc1 quantitative_result=7.8
compound=CC(C)CN(CC(=O)NC(=O)c1ccccc1)CC(C)C quantitative_result=-10.1
compound=CCOC(=O)c1cnc2c(ccc3ncccc32)c1Cl quantitative_result=-7.45
compound=COc1cc(C)c(O)c(C)c1C quantitative_result=-4.1
compound="CC(=O)OC1COC([n+]2cccc(C(N)=O)c2)C(OC(C)=O)C1OC(C)=O (stereo not drawn)" quantitative_result=-22.7
compound="CCN1CCC(O)(C(C(=O)O)c2ccccc2)CC1 (stereo not drawn)" quantitative_result=-27
compound=CCOC(=O)CCc1cn2cc(Br)nc(OC)c2n1 quantitative_result=-38
compound=COC(=O)c1cc(C)c(C)c2c1NC(=O)CNC2=O quantitative_result=-4.2
